pIC50: −log10 of the molar value.
Collected from the literature: pIC50 of various compounds toward 15-hydroxyprostaglandin dehydrogenase [NAD(+)] (Homo sapiens).

{"columns": ["Compound", "pIC50"],
 "data": [
  ["COc1cc(/C=C2\\SC(=O)NC2=O)ccc1OCCC1CCCCC1", 7.64],
  ["O=C1NC(=O)/C(=C/c2ccc(OC(=O)C3CCCCC3)cc2Cl)S1", 7.57],
  ["O=C(CCc1ccccc1)Oc1ccc(/C=C2\\SC(=O)NC2=O)cc1Br", 7.55],
  ["O=C1NC(=O)/C(=C/c2ccc(OCCc3ccsc3)cc2)S1", 6.83],
  ["N#C/C(=C\\c1ccccc1Cl)c1nn(-c2ccccc2)c(N)c1C#N", 5.52],
  ["O=C1NC(=O)/C(=C/c2ccc(OCCC3CCCCC3)c(Cl)c2)S1", 8.14],
  ["O=C1NC(=O)/C(=C/c2ccc(OCCCC3CCCCC3)cc2Cl)S1", 6.55],
  ["COc1cc(/C=C2\\SC(=O)NC2=O)ccc1OC(=O)CCC1CCCC1", 7.63],
  ["O=C1NC(=O)C(Cc2ccc(OCCN3CCS(=O)(=O)CC3)cc2)S1 (stereo not drawn)", 5.28],
  ["O=C1NC(=O)/C(=C/c2ccc(OCC3CCCCC3)c(Cl)c2)S1", 7.57],
  ["O=C1NC(=O)C(Cc2ccc(OCCC3CCCCC3)cc2Cl)S1 (stereo not drawn)", 6.80],
  ["COc1ccccc1/C=C(\\C#N)c1nn(-c2ccccc2)c(N)c1C#N", 5.30],
  ["O=C1NC(=O)/C(=C/c2cc(OCCC3CCCCC3)ccc2[N+](=O)[O-])S1", 5.20],
  ["O=C(CCCC1CCCCC1)Oc1ccc(/C=C2\\SC(=O)NC2=O)cc1", 7.58],
  ["O=C1NC(=O)C(Cc2ccc(OCc3ccc(-c4ccccc4)cc3)cc2)S1 (stereo not drawn)", 5.97],
  ["O=C1NC(=O)/C(=C/c2ccc(OCCCN3CCS(=O)(=O)CC3)cc2)S1", 5.52],
  ["O=C(CC1CCCCC1)Oc1ccc(/C=C2\\SC(=O)NC2=O)cc1Cl", 7.62],
  ["O=C1NC(=O)/C(=C/c2ccc(OC(=O)C3CCCCC3)c(Br)c2)S1", 7.42],
  ["O=C1NC(=O)/C(=C/c2ccc(O)cc2)S1", 5.00],
  ["COc1cc(/C=C2\\SC(=O)NC2=O)ccc1OC(=O)C1CCC1", 5.95],
  ["Cc1ccc(COc2ccc(/C=C3\\SC(=O)NC3=O)cc2)cc1", 6.59]
]}
